# Lookup of reported pIC50 keyed by entry
Molecular target: COX-2
Experiment: Evaluation of COX-2 activity in vitro (PGE2 ELISA, recombinant enzyme)
Conditions: arachidonic acid 10 μM, pH 8.0, pre-incubation 10-20 minutes
pIC50: −log10 of the molar value.

compound	tested_on	result_comparator	pIC50
Cc1onc(-c2cccnc2)c1-c1ccc(S(N)(=O)=O)cc1 [Example 4e]	COX-2	=	5.70
CC(C)(O)COCc1onc(-c2ccccc2)c1-c1ccc(S(N)(=O)=O)cc1 [Example 56]	COX-2	=	6.70
Cc1onc(-c2cccc(Cl)c2)c1-c1ccc(S(N)(=O)=O)cc1 [Example 48]	COX-2	=	6.52
Cc1noc(-c2ccc(Cl)cc2)c1-c1ccc(S(N)(=O)=O)cc1 [Example 20]	COX-2	=	5.33
CCCCc1noc(-c2ccccc2)c1-c1ccc(S(N)(=O)=O)cc1 [Example 18]	COX-2	=	6.22
CCc1noc(-c2ccccc2F)c1-c1ccc(S(N)(=O)=O)cc1 [Example 33]	COX-2	>	7.00
Cc1onc(-c2ccc(F)cc2)c1-c1ccc(S(N)(=O)=O)cc1 [Example 4b]	COX-2	>	7.00
COCc1onc(-c2ccccc2)c1-c1ccc(S(N)(=O)=O)cc1 [Example 1n]	COX-2	>	7.00
NS(=O)(=O)c1ccc(-c2c(-c3ccccc3)noc2CCO)cc1 [Example 66]	COX-2	>	7.00

---

Biological target: COX-1
Assay: Evaluation of COX-1 activity in vitro (PGE2 ELISA, recombinant enzyme)
Format: biochemical, human or murine
Conditions: arachidonic acid 10 μM, pH 8.0, pre-incubation 10-20 minutes
pIC50: −log10 of the molar value.
# Lookup of reported pIC50 keyed by entry
readout_name: pIC50

molecule	recorded_value
Cc1onc(-c2ccc(Cl)c(Cl)c2C(=O)O)c1-c1ccc(S(N)(=O)=O)cc1	< 4.00
CCc1noc(-c2ccccc2)c1-c1ccc(S(C)(=O)=O)cc1	< 4.00
CCc1noc(-c2ccccc2)c1-c1ccc(S(N)(=O)=O)cc1	4.00
Cc1onc(-c2ccccc2)c1-c1ccc(S(C)(=O)=O)cc1	< 4.00
Cc1onc(-c2ccc(S(N)(=O)=O)cc2)c1-c1ccccc1	4.09
NS(=O)(=O)c1ccc(-c2c(-c3ccccc3)noc2COCCO)cc1	< 4.00
CCc1noc(-c2ccccc2C)c1-c1ccc(S(N)(=O)=O)cc1	< 4.00
NS(=O)(=O)c1ccc(-c2c(-c3ccccc3)noc2C(F)F)cc1	< 4.00
CSc1onc(-c2ccccc2)c1-c1ccc(S(N)(=O)=O)cc1	4.85
Cc1onc(-c2ccc(F)cc2)c1-c1ccc(S(N)(=O)=O)cc1	< 4.00
CCCCc1onc(-c2ccccc2)c1-c1ccc(S(N)(=O)=O)cc1	4.59
COc1ccc(-c2noc(C(F)F)c2-c2ccc(S(N)(=O)=O)cc2)cc1	4.80
CC(C)(C)Cc1onc(-c2ccccc2)c1-c1ccc(S(N)(=O)=O)cc1	< 4.00
NS(=O)(=O)c1ccc(-c2c(CC(=O)O)noc2-c2ccccc2)cc1	< 4.00
Cc1noc(-c2ccc(S(C)(=O)=O)cc2)c1-c1ccccc1	< 4.00
CC(C)c1noc(-c2ccccc2)c1-c1ccc(S(N)(=O)=O)cc1	4.23
Cc1onc(-c2ccccc2)c1-c1ccc(S(=O)(=O)O)cc1	< 4.00
Cc1onc(-c2cccc(Cl)c2)c1-c1ccc(S(N)(=O)=O)cc1	4.03
NS(=O)(=O)c1ccc(-c2c(-c3ccccc3)noc2OS(=O)(=O)C(F)(F)F)cc1	< 4.00
Cc1ccc(-c2noc(C)c2-c2ccc(S(N)(=O)=O)cc2)cc1F	4.18
NS(=O)(=O)c1ccc(-c2c(-c3ccccc3)noc2O)cc1	< 4.00
COC(=O)c1ccc(OCc2onc(-c3ccccc3)c2-c2ccc(S(N)(=O)=O)cc2)cc1	< 4.00
CCCCc1noc(-c2ccccc2)c1-c1ccc(S(N)(=O)=O)cc1	< 4.00
CC(C)(O)COCc1onc(-c2ccccc2)c1-c1ccc(S(N)(=O)=O)cc1	< 4.00
Cc1onc(-c2ccc(Cl)cc2)c1-c1ccc(S(N)(=O)=O)cc1	4.04
Cc1onc(-c2cc(F)cc(F)c2)c1-c1ccc(S(N)(=O)=O)cc1	< 4.00
NS(=O)(=O)c1ccc(-c2c(-c3ccccc3)noc2Cc2ccc(Cl)cc2)cc1	5.07
C[S+]([O-])c1onc(-c2ccccc2)c1-c1ccc(S(N)(=O)=O)cc1 (stereo not drawn)	< 4.00
CCCc1noc(-c2ccccc2)c1-c1ccc(S(N)(=O)=O)cc1	< 4.00
CCc1noc(-c2ccc(F)cc2)c1-c1ccc(S(N)(=O)=O)cc1	4.39
Cc1noc(-c2ccc(Cl)cc2)c1-c1ccc(S(N)(=O)=O)cc1	< 4.00
CSc1ccc(-c2noc(C)c2-c2ccncc2)cc1	5.64
Cc1onc(-c2ccc(Cl)c(Cl)c2)c1-c1ccc(S(N)(=O)=O)cc1	4.44

---

Target: COX-1
Experiment: Evaluation of COX-1 activity in vitro (PGE2 ELISA, recombinant enzyme)
Conditions: arachidonic acid 10 μM, pH 8.0, pre-incubation 10-20 minutes

molecule_smiles	IC50
CS(=O)(=O)c1ccc(-c2c(-c3ccccc3)noc2C(F)F)cc1	> 100 µM
CCCc1onc(-c2ccccc2)c1-c1ccc(S(=O)(=O)O)cc1	> 100 µM
CCCc1onc(-c2ccccc2)c1-c1ccc(S(N)(=O)=O)cc1	13.2 µM
Cc1noc(-c2ccccc2)c1-c1ccc(S(N)(=O)=O)cc1	6.4 µM
NS(=O)(=O)c1ccc(-c2c(-c3ccccc3)noc2COc2ccc(C(=O)O)cc2)cc1	> 100 µM
NS(=O)(=O)c1ccc(-c2c(-c3ccccc3)noc2CC2CCCCC2)cc1	4.7 µM
COc1ccc(-c2noc(C(F)F)c2-c2ccc(S(N)(=O)=O)cc2)cc1F	> 100 µM
CCc1noc(-c2ccc(C)cc2)c1-c1ccc(S(N)(=O)=O)cc1	> 100 µM
Cc1onc(-c2cccnc2)c1-c1ccc(S(N)(=O)=O)cc1	> 100 µM

---

Target: COX-1
Assay: Evaluation of COX-1 activity in vitro (PGE2 ELISA, recombinant enzyme)
Conditions: arachidonic acid 10 μM, pH 8.0, pre-incubation 10-20 minutes
# Lookup of reported IC50 keyed by entry

molecule	IC50
Cc1ccc(-c2noc(C)c2-c2ccc(S(N)(=O)=O)cc2)cc1Cl [Example 4d]	44 µM
Cc1onc(-c2ccc(Br)cc2)c1-c1ccc(S(N)(=O)=O)cc1 [Example 43]	> 100 µM
NS(=O)(=O)c1ccc(-c2c(-c3ccccc3)noc2Cl)cc1 [Example 38]	> 100 µM
NS(=O)(=O)c1ccc(-c2c(-c3ccccc3)noc2CCO)cc1 [Example 66]	> 100 µM
NS(=O)(=O)c1ccc(-c2c(-c3cccc(F)c3)noc2CC(=O)O)cc1 [Example 55]	> 100 µM

---

Biological target: COX-1
Experiment: Evaluation of COX-1 activity in vitro (PGE2 ELISA, recombinant enzyme)
Details: arachidonic acid 10 μM, pH 8.0, pre-incubation 10-20 minutes
pIC50: −log10 of the molar value.
# Lookup of reported pIC50 keyed by entry

molecule_smiles	tested_on	pIC50
COCc1onc(-c2ccccc2)c1-c1ccc(S(N)(=O)=O)cc1	COX-1	< 4.00
Cc1ccc(-c2noc(C(F)F)c2-c2ccc(S(N)(=O)=O)cc2)cc1	COX-1	4.00
CS(=O)(=O)c1ccc(-c2c(-c3ccccc3)noc2CO)cc1	COX-1	< 4.00
CC(C)c1onc(-c2ccccc2)c1-c1ccc(S(N)(=O)=O)cc1	COX-1	5.21
NS(=O)(=O)c1ccc(-c2c(-c3ccccc3)noc2CC(=O)C(F)(F)F)cc1	COX-1	4.03
NS(=O)(=O)c1ccc(-c2c(CO)noc2-c2ccccc2)cc1	COX-1	< 4.00
Cc1onc(-c2ccc(F)c(F)c2)c1-c1ccc(S(N)(=O)=O)cc1	COX-1	< 4.00
NS(=O)(=O)c1ccc(-c2c(-c3ccccc3)noc2COCC(=O)O)cc1	COX-1	< 4.00
N#Cc1onc(-c2ccccc2)c1-c1ccc(S(N)(=O)=O)cc1	COX-1	< 4.00

---

Molecular target: COX-1
Assay: Evaluation of COX-1 activity in vitro (PGE2 ELISA, recombinant enzyme)
Details: arachidonic acid 10 μM, pH 8.0, pre-incubation 10-20 minutes
# Lookup of reported IC50 keyed by entry

molecule_smiles	IC50
NS(=O)(=O)c1ccc(-c2c(-c3ccccc3)noc2C2CCCCC2)cc1	54 µM
CCc1noc(-c2ccccc2F)c1-c1ccc(S(N)(=O)=O)cc1	26 µM
NS(=O)(=O)c1ccc(-c2c(-c3ccccc3)noc2CCl)cc1	50.7 µM
NS(=O)(=O)c1ccc(-c2c(-c3ccccc3)noc2CCCO)cc1	> 100 µM
NS(=O)(=O)c1ccc(-c2c(-c3ccccc3)noc2CCCC(=O)O)cc1	> 100 µM
Cc1onc(-c2ccncc2)c1-c1ccc(S(N)(=O)=O)cc1	> 100 µM
NS(=O)(=O)c1ccc(-c2c(-c3ccccc3)noc2CO)cc1	> 100 µM
Cc1noc(-c2ccc(S(N)(=O)=O)cc2)c1-c1ccccc1	56 µM
CC(C)Cc1onc(-c2ccccc2)c1-c1ccc(S(N)(=O)=O)cc1	37.7 µM

Data origin: patent US5859257A
